Documented pEC50 across a set of compounds
target_under_test: human FPR2 (Homo sapiens (Human))
experiment: FPR2 cyclic adenosine monophosphate (cAMP) assay
test_parameters: CHO cells overexpressing human FPR2; forskolin 5 µM; inhibition of cAMP production; read-out: hFPR2 cAMP2 EC50
Experimental: N-formyl peptide receptors (FPRs) are a family of chemo attractant receptors that facilitate leukocyte response during inflammation. FPRs belong to the seven-transmembrane G protein-coupled receptor superfamily and are linked to inhibitory G-proteins (Gi). […] FPR2 and FPR1 Cyclic Adenosine Monophosphate (cAMP) Assays. […] The level of intracellular cAMP was determined using the HTRF HiRange cAMP assay reagent kit (Cisbio) according to manufacturer’s instruction. […]
pEC50: −log10 of the molar value.
property_name: pEC50

1) COCC(C(=O)N1C[C@@H]2C[C@H]1CO2)n1cccc(N2C[C@@H](c3c(F)cc(OC)cc3F)[C@H](NC(=O)c3ccc(OC(F)(F)F)cc3)C2=O)c1=O (stereo partly drawn) :: 9.10
2) COCC(CO)n1cccc(N2C[C@@H](c3c(F)cc(OC)cc3F)[C@H](NC(=O)c3ccc(OC(F)F)cc3)C2=O)c1=O (stereo partly drawn) [Example 133] :: 8.47
3) COc1cc(F)c([C@@H]2CN(c3cncn(C(CO)C(F)(F)F)c3=O)C(=O)[C@H]2NC(=O)c2ccc(Cl)cc2)c(F)c1 (stereo partly drawn) [Example 517] :: 8.55
4) CCn1cc(C)c(C)c(N2C[C@@H](c3c(F)cc(OC)cc3F)[C@H](NC(=O)c3ccc(OC(F)F)cc3)C2=O)c1=O :: 7.82
5) COc1cc(F)c([C@@H]2CN(c3nccc(N4CCN(C)CC4)c3C(F)(F)F)C(=O)[C@H]2NC(=O)c2ccc(Cl)cc2)c(F)c1 :: 8.16
6) COc1cc(F)c([C@@H]2CN(c3nc(N4CC5(COC5)C4)ccc3F)C(=O)[C@H]2NC(=O)c2ccc(OC(F)F)cc2)c(F)c1 :: 8.26

* * *

target_under_test: human FPR1 (Homo sapiens (Human), UniProt P21462)
Sequence (P21462 whole entry): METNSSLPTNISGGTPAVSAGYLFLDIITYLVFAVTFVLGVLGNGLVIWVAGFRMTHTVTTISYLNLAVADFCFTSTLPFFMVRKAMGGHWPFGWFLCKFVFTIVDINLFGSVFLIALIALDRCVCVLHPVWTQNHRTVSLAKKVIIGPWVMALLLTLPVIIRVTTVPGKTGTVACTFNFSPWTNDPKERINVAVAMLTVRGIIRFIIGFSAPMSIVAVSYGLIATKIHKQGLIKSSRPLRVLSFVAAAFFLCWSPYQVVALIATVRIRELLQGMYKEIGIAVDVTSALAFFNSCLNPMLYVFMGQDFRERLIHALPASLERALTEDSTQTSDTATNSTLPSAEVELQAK
experiment: FPR1 cyclic adenosine monophosphate (cAMP) assay
test_parameters: CHO cells overexpressing human FPR1; forskolin 10 µM; inhibition of cAMP production; read-out: hFPR1 cAMP EC50
Reported EC50 values are given for each entry in this list.
property_name: EC50 (nM)

1. COc1cc(F)c([C@@H]2CN(c3cccc(C4CCCNC4)n3)C(=O)[C@H]2NC(=O)c2ccc(OC(F)F)cc2)c(F)c1 (stereo partly drawn) [Example 718] :: 840
2. COc1cc(F)c([C@@H]2CN(c3nc(C(F)(F)F)ccc3C#N)C(=O)[C@H]2NC(=O)c2ccc(OC(F)(F)F)cc2)c(F)c1 :: 77
3. COc1ccc([C@@H]2CN(c3ccnn(CCC(F)(F)F)c3=O)C(=O)[C@H]2NC(=O)c2ccc(OC(F)F)cc2)cc1 [Example 645] :: 190

* * *

target_under_test: human FPR1 (Homo sapiens (Human), UniProt P21462)
experiment: FPR1 cyclic adenosine monophosphate (cAMP) assay
test_parameters: CHO cells overexpressing human FPR1; forskolin 10 µM; inhibition of cAMP production; read-out: hFPR1 cAMP EC50
Below: a set of entries, each annotated with reported EC50.
property_name: EC50 (nM)

1. COc1cc(F)c([C@@H]2CN(c3c(C)ccn(CC4CC4)c3=O)C(=O)[C@H]2NC(=O)c2ccc(Cl)cc2)c(F)c1 :: 3
2. COc1cc(F)c([C@@H]2CN(c3c(C)ccn(C4CCS(=O)(=O)C4)c3=O)C(=O)[C@H]2NC(=O)c2ccc(OC(F)(F)F)cc2)c(F)c1 (stereo partly drawn) :: 7.5

* * *

target_under_test: human FPR1 (Homo sapiens (Human), UniProt P21462)
experiment: FPR1 cyclic adenosine monophosphate (cAMP) assay
test_parameters: CHO cells overexpressing human FPR1; forskolin 10 µM; inhibition of cAMP production; read-out: hFPR1 cAMP EC50
Method: N-formyl peptide receptors (FPRs) are a family of chemo attractant receptors that facilitate leukocyte response during inflammation. FPRs belong to the seven-transmembrane G protein-coupled receptor superfamily and are linked to inhibitory G-proteins (Gi). […] FPR2 and FPR1 Cyclic Adenosine Monophosphate (cAMP) Assays. […] The level of intracellular cAMP was determined using the HTRF HiRange cAMP assay reagent kit (Cisbio) according to manufacturer’s instruction. […]
property_name: EC50 (nM)

1. CCn1ccc(C)c(N2C[C@@H](c3c(F)cc(OC)cc3F)[C@H](NC(=O)c3ccc(OC(F)F)cc3)C2=O)c1=O :: 1.7
2. COc1ccc([C@@H]2CN(c3c(C)ccn(C(F)F)c3=O)C(=O)[C@H]2NC(=O)c2ccc(OC(F)F)cc2)cc1 :: 1
3. COCC(CN)n1cccc(N2C[C@@H](c3c(F)cc(OC)cc3F)[C@H](NC(=O)c3ccc(OC(F)(F)F)cc3)C2=O)c1=O (stereo partly shown) [Example 194] :: 150
4. COc1cc(F)c([C@@H]2CN(c3cccn4cc(C)nc34)C(=O)[C@H]2NC(=O)c2ccc(Cl)cc2)c(F)c1 :: 270
5. COc1ccc([C@@H]2CN(c3cccn(CCO)c3=O)C(=O)[C@H]2NC(=O)c2ccc(OC(F)F)cc2)c(F)c1 :: 53
6. COCCn1ccnc1N1C[C@@H](c2c(F)cc(OC)cc2F)[C@H](NC(=O)c2ccc(OC(F)F)cc2)C1=O :: 780
7. COCC(CO)n1cccc(N2C[C@@H](c3c(F)cc(OC)cc3F)[C@H](NC(=O)c3ccc(OC(F)F)cc3)C2=O)c1=O (stereo partly shown) [Example 142] :: 87

* * *

target_under_test: human FPR1 (Homo sapiens (Human))
experiment: FPR1 cyclic adenosine monophosphate (cAMP) assay
test_parameters: CHO cells overexpressing human FPR1; forskolin 10 µM; inhibition of cAMP production; read-out: hFPR1 cAMP EC50
pEC50: −log10 of the molar value.
property_name: pEC50

1) COc1cc(F)c([C@@H]2CN(c3cccn(CC(C)O)c3=O)C(=O)[C@H]2NC(=O)c2ccc(OC(F)(F)F)cc2)c(F)c1 (stereo partly shown) [Example 173] :: 7.92
2) COCCn1cccc(N2C[C@@H](c3c(F)cc(OC)cc3F)[C@H](NC(=O)c3ccc(OC)cc3)C2=O)c1=O :: 6.08
3) COCCn1ccc(C)c(N2C[C@@H](c3ccc(OC)cc3)[C@H](NC(=O)c3ccc(OC(F)F)cc3)C2=O)c1=O :: 8.92
4) COCC(CO)n1cccc(N2C[C@@H](c3ccc(OC)cc3)[C@H](NC(=O)c3ccc(Cl)cc3)C2=O)c1=O (stereo partly shown) [Example 411] :: 6.92

* * *

target_under_test: human FPR2 (Homo sapiens (Human), UniProt P25090)
Sequence (P25090 whole entry): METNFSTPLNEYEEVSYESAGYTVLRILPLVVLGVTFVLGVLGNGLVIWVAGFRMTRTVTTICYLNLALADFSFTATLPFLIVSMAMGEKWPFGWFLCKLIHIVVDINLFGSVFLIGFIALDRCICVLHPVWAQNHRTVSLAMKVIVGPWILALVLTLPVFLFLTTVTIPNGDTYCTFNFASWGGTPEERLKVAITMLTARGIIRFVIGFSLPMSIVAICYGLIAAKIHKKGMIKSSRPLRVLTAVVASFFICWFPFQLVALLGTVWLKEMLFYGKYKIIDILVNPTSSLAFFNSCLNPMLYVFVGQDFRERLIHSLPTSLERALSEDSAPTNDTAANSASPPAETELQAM
experiment: FPR2 cyclic adenosine monophosphate (cAMP) assay
test_parameters: CHO cells overexpressing human FPR2; forskolin 5 µM; inhibition of cAMP production; read-out: hFPR2 cAMP2 EC50
Protocol: N-formyl peptide receptors (FPRs) are a family of chemo attractant receptors that facilitate leukocyte response during inflammation. FPRs belong to the seven-transmembrane G protein-coupled receptor superfamily and are linked to inhibitory G-proteins (Gi). […] FPR2 and FPR1 Cyclic Adenosine Monophosphate (cAMP) Assays. […] The level of intracellular cAMP was determined using the HTRF HiRange cAMP assay reagent kit (Cisbio) according to manufacturer’s instruction. […]
pEC50: −log10 of the molar value.
Measured pEC50 by item
property_name: pEC50

1) COCC(CO)n1cccc(N2C[C@@H](c3ccc(Cl)cc3)[C@H](NC(=O)c3ccc(Cl)cc3)C2=O)c1=O (stereo partly shown) [Example 414] :: 8.33
2) COc1cc(F)c([C@@H]2CN(c3nc(N(C)C(C)=O)ccc3F)C(=O)[C@H]2NC(=O)c2ccc(OC(F)F)cc2)c(F)c1 :: 8.34
3) COc1cc(F)c([C@@H]2CN(c3cccn(C(F)F)c3=O)C(=O)[C@H]2NC(=O)c2ccc(OC(F)(F)F)cc2)c(F)c1 :: 8.31
4) COc1cc(F)c([C@@H]2CN(c3nc(N4CCC(O)C4=O)ccc3F)C(=O)[C@H]2NC(=O)c2ccc(OC(F)F)cc2)c(F)c1 (stereo partly shown) [Example 135] :: 8.46
5) COc1cc(F)c([C@H]2[C@H](NC(=O)c3ccc(OC(F)F)cc3)C(=O)N(c3cccc(P(C)(C)=O)n3)[C@H]2C)c(F)c1 :: 7.00
6) CCn1nccc(N2C[C@@H](c3c(F)cc(OC)cc3F)[C@H](NC(=O)c3ccc(OC(F)F)cc3)C2=O)c1=O :: 8.70
7) COCC(CO)n1cccc(N2C[C@@H](c3ccc(Cl)cc3)[C@H](NC(=O)c3ccc(Cl)cc3)C2=O)c1=O (stereo partly shown) [Example 406] :: 8.54
8) COc1cc(F)c([C@@H]2CN(c3cccnc3OC3CCOC3)C(=O)[C@H]2NC(=O)c2ccc(OC(F)(F)F)cc2)c(F)c1 (stereo partly shown) :: 8.19
9) COc1cc(F)c([C@@H]2CN(c3nc(C(F)(F)F)ccc3C#N)C(=O)[C@H]2NC(=O)c2ccc(OC(F)(F)F)cc2)c(F)c1 :: 8.82
10) CCn1cccc(N2C[C@@H](c3ccc(OC)cc3F)[C@H](NC(=O)c3ccc(OC(F)(F)F)cc3)C2=O)c1=O [Example 249] :: 8.16
11) COc1cc(F)c([C@@H]2CN(c3c(C)ccn(CC4CC4)c3=O)C(=O)[C@H]2NC(=O)c2ccc(Cl)cc2)c(F)c1 :: 8.52
12) COc1ccc([C@@H]2CN(c3ccnn(CC(F)F)c3=O)C(=O)[C@H]2NC(=O)c2ccc(Cl)cc2)cc1 :: 7.96
13) COc1cc(F)c([C@@H]2CN(c3cc(C#N)cn(C)c3=O)C(=O)[C@H]2NC(=O)c2ccc(OC(F)F)cc2)c(F)c1 :: 7.89
